List of IC90, Myostatin SMAD RGA values.
ASSAYED TARGET: ActRIIA and ActRIIB (on TGFB/SMAD SBE Reporter HEK293 cells) (human)
Sequence (chain, as listed by the source, chain 1 of 2): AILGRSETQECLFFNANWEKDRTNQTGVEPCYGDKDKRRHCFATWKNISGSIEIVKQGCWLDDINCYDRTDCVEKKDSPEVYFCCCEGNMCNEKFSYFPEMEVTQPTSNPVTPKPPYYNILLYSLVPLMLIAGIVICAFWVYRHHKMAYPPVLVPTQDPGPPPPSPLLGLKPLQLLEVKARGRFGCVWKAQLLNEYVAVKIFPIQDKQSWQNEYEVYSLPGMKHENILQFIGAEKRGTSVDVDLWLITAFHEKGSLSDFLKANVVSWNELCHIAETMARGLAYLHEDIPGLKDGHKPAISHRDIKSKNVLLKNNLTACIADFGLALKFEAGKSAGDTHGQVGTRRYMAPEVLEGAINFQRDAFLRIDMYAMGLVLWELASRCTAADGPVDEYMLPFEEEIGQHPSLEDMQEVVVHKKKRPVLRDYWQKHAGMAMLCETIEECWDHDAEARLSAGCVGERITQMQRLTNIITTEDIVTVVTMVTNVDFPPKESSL
Sequence (chain, as listed by the source, chain 2 of 2): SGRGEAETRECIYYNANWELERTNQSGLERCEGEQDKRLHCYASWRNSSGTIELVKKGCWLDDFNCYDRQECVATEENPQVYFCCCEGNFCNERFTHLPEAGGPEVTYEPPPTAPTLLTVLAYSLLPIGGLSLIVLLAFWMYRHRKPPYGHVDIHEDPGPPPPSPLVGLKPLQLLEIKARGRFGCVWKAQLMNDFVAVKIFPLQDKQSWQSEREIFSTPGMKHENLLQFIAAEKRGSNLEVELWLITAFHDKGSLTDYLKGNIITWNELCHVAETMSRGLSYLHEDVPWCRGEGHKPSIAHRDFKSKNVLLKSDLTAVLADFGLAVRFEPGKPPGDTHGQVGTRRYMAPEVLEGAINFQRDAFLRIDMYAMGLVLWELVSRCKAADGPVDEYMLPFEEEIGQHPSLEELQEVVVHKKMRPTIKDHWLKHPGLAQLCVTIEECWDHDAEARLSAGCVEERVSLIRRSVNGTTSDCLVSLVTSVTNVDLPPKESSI
TEST DETAILS: cell-based or functional assay
Report the value in nM with no unit label.

Antibody Floischbrühsupp (antibody, V domains shown, full-length IgG) VH: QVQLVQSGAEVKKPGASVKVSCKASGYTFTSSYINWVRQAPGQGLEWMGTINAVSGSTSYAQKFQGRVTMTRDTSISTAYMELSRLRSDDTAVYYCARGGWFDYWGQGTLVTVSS VL: QSALTQPASVSGSPGQSITISCTGTSSDVGSFNYVNWYQQHPGKAPKLMIKGVSKRESGVSNRFSGSKSGNTASLTISGLQAEDEADYYCGTFAGGAYYGVFGGGTKLTVL | 2.62
Antibody Biiramooscht (antibody, V domains shown, full-length IgG) VH: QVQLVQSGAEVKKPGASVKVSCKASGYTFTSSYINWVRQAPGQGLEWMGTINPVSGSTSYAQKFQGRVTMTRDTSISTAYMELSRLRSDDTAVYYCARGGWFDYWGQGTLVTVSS VL: QSALTQPASVSGSPGQSITISCTGTSSDVGSYNYVNWYQQHPGKAPKLMIYGVSKRESGVSNRFSGSKSGNTASLTISGLQAEDEADYYCGTFAGGAYYGVFGGGTKLTVL | 2.78

Moving on to the next binder.
So, Antibody Wurschdsalat (antibody, V domains shown, full-length IgG) VH: QVQLVQSGAEVKKPGASVKVSCKASGYTFTSSYINWVRQAPGQGLEWMGTINAVSGSTSYAQKFQGRVTMTRDESISTAYMELSRLRSDDTAVYYCARGGWFDYWGQGTLVTVSS VL: QSALTQPASVSGSPGQSITISCTGTSSDVGSYNYVNWYQQHPGKAPKLMIYGVSKRESGVSNRFSGSKSGNTASLTISGLQAEDEADYYCGTFAGGKYYGVFGGGTKLTVL ? Its IC90, Myostatin SMAD RGA was 3.89

Every entry's value here was drawn from patent US20250243286A1.
